Test system: tobacco mosaic virus (TMV)
assay.details: Anti-TMV inactivation activity (inactivation mode), compound mixed with TMV before inoculation of tobacco leaves
Assay type: in vivo
test.parameters: Tobacco mosaic virus, read-out: Anti-TMV activity, Inactivation effect (inhibition)
observed.property: inhibition at 100 µg/mL (%)
Numbers only, in %.

# annotated cases, reported inhibition at 100 µg/mL shown
1. COc1ccc(C(=O)N/C(=C\c2ccccc2)C(=O)N2CCC(O)(c3ccc(Br)cc3)CC2)cc1 [Compound 5] = 49
2. CC(C)(C)OC(=O)N1CCC(c2nc(/C=C(\NC(=O)c3ccccc3)C(=O)O)cs2)CC1 [Compound 74] = 0
3. O=C(N/C(=C\c1c[nH]cn1)C(=O)N1CCC(O)(c2ccc(Br)cc2)CC1)c1ccccc1 [Compound 26] = 21

Now consider the entry below.
Can you look up inhibition at 100 µg/mL on tobacco mosaic virus (TMV) for CONC(=O)/C(=C/c1ccccc1)NC(=O)c1ccccc1 [Compound 33] ?
0
